# assayed.target: Jak2 (UniProt O60674)
# Sequence (O60674 whole entry, looked up): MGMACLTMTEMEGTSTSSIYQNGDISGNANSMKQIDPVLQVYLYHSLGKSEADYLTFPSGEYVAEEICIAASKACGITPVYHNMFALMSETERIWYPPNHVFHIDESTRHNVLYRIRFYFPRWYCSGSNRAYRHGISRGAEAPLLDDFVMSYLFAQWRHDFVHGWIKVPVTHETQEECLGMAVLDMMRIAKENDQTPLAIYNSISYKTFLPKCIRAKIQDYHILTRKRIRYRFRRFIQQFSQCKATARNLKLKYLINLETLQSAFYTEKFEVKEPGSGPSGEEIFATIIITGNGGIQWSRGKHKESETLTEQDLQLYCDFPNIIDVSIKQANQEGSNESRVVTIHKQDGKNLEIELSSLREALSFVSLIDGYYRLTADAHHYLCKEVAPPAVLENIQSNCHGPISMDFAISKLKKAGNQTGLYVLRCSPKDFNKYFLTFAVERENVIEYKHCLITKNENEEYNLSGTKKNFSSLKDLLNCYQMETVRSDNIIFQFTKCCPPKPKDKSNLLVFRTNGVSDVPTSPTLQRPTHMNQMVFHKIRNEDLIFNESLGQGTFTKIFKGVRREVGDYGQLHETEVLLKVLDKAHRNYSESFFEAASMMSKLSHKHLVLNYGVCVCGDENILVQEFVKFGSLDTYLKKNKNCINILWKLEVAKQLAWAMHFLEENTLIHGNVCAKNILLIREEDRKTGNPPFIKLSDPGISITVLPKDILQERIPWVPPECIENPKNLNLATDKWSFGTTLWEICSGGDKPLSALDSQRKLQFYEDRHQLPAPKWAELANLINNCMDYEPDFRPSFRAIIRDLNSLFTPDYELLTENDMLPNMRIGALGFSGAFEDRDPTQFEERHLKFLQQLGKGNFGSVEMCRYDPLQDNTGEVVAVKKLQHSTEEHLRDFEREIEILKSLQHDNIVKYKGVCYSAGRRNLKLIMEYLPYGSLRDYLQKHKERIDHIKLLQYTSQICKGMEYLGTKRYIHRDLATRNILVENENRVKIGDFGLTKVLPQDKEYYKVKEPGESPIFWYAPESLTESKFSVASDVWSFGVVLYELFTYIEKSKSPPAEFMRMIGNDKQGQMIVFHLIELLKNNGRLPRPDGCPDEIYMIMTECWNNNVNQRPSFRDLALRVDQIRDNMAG
# assay.summary: phosphorylation enrichment, bacterial display (enrichment ratio); higher = better substrate or ligand; peptides without Tyr show the background
// label = y if phosphorylation enrichment is not less than 0.8, otherwise n

Reference set, count: 5
record_sequence="GDAMLYYPSVS [GPR143_Y177_A173D]" assayed_target="Jak2 (UniProt O60674)" cat=y
record_sequence="GAVDTYCRHNY [HLA-DRB1_Y107_A102G]" assayed_target="Jak2 (UniProt O60674)" cat=n
record_sequence="PEEKVYLSRGD [CRACR2A_Y141_H136P]" assayed_target="Jak2 (UniProt O60674)" cat=y
record_sequence="VFAPDFIAGVS [NOB1_Y366_Y366F]" assayed_target="Jak2 (UniProt O60674)" cat=n
record_sequence="FLTQHHDAKPQ [ANG_Y38_Y38H]" assayed_target="Jak2 (UniProt O60674)" cat=n

Note: attention shifts to another entry.
Exercise: // inclusive: phosphorylation enrichment at least 0.8? input: EERNTYVNTTL [TEK_Y1102_K1100N]
Key: n

* * *

# assayed.target: EPHB2 (UniProt P29323)
# Sequence (P29323 whole entry, looked up): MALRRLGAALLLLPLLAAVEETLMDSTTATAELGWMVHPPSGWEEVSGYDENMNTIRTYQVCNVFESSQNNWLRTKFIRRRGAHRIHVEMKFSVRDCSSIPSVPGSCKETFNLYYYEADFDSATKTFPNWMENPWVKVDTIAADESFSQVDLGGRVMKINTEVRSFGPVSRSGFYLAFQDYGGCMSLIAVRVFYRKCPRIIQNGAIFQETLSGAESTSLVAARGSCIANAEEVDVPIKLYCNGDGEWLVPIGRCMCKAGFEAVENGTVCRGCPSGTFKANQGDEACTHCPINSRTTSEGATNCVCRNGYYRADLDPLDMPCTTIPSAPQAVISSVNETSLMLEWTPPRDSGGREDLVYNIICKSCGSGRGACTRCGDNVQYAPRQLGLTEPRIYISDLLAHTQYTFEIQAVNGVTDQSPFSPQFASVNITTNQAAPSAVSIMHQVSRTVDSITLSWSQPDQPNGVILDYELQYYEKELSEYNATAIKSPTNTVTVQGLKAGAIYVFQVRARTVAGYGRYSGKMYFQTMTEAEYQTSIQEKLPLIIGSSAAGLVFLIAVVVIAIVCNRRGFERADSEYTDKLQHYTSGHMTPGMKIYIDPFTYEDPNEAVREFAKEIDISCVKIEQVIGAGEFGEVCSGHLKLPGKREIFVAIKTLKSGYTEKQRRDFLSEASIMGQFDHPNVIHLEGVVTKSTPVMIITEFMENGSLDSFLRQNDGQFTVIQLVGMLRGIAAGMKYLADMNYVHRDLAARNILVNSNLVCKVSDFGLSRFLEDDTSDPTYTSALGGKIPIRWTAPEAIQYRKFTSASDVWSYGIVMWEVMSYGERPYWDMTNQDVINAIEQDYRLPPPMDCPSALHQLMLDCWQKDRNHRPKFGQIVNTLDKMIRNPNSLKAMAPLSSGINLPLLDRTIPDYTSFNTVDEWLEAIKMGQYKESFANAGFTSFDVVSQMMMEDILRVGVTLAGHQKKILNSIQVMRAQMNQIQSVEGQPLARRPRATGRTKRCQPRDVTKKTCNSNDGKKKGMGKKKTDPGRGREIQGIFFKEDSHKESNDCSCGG
# assay.summary: phosphorylation enrichment, bacterial display (enrichment ratio); higher = better substrate or ligand; peptides without Tyr show the background
measured.quantity: phosphorylation enrichment
Give bare numbers.

Answered examples (2):
record_sequence="SVVVPYDPPEV [TP53_Y220_E221D]" measured_quantity="phosphorylation enrichment" value=0.51
record_sequence="CTTIHYNYLCN [TP53_Y234_M237L]" measured_quantity="phosphorylation enrichment" value=0.491

Parameters: items (list). Returns: phosphorylation enrichment for each item.
1. NDENIYKGLPD [VAV3_Y141_D139N]
2. SIRYNYLLDVL [FGFR4_Y237]
3. RLLRGYDQLAY [HLA-C_Y137_S140L]

Key:
1: 0.644; 2: 0.524; 3: 0.67

Parameters: items (list). Returns: phosphorylation enrichment for each item.
1. EKKDLYKAGEQ [CFH_Y1008_V1007L]
2. GEIQEYGAPSD [ABCC1_Y1508]
3. QNVADYMRFLM [RPL5_Y207_YF]

Key:
0.432
0.544
1.92

* * *

# assayed.target: c-Src SH2
# assay.summary: SH2 binding enrichment of the phosphorylated peptide, bacterial display (enrichment ratio); higher = better substrate or ligand; peptides without Tyr show the background
measured.quantity: SH2 binding enrichment
Numbers only.

Answered examples (3):
record_sequence="RAHARYCADAR [ACOT4_Y52]" value=0.656
record_sequence="RRAKGYPINLY [ITGB2_Y125_D128N]" value=0.484
record_sequence="SKHHLYSDLQT [PTCHD1_Y84_R82H]" value=10

Parameters: items (list). Returns: SH2 binding enrichment for each item.
1. GEFHVYRHLRR [PRKRIP1_Y82]
2. PVLSLYASGRT [ACTA1_Y145_A140P]
3. LQKNIYSEELR [LMNA_Y211_F206L]

Key:
[0.501, 0.484, 0.582]

* * *

# assayed.target: EPHB2 (UniProt P29323)
# assay.summary: phosphorylation enrichment, bacterial display (enrichment ratio); higher = better substrate or ligand; peptides without Tyr show the background
measured.quantity: phosphorylation enrichment
Answers are plain numbers.

record_sequence="ANYTEYVATRW [CDKL5_Y171]" measured_quantity="phosphorylation enrichment" value=9.4
record_sequence="QMQNPYSRHSS [MUC13_Y501]" measured_quantity="phosphorylation enrichment" value=0.416
record_sequence="EVRAQYEEIAQ [KRT76_Y361]" measured_quantity="phosphorylation enrichment" value=0.641

Parameters: items (list). Returns: phosphorylation enrichment for each item.
1. NKEAICSGFIR [SMCHD1_Y283_Y283C_YF]
2. GGDGSYVSVPL [TNNI3K_Y425_S430L]
3. VIKSSYQVAKA [CPT1B_Y534_E531K]

Key:
[0.398, 0.509, 0.414]

Exercise: Which phosphorylation enrichment is reported for this sequence? DEGVNHFMSKG [FBXO8_Y156_Y156H]
Key: 0.424

* * *

# assayed.target: Jak2 (UniProt O60674)
# assay.summary: phosphorylation enrichment, bacterial display (enrichment ratio); higher = better substrate or ligand; peptides without Tyr show the background
measured.quantity: phosphorylation enrichment

record_sequence="SWSTSYSGFRF [NKAPL_Y91_YF]" assayed_target="Jak2 (UniProt O60674)" measured_quantity="phosphorylation enrichment" value=0.821
record_sequence="ESAAIYNPVIY [RHO_Y301_K296E]" assayed_target="Jak2 (UniProt O60674)" measured_quantity="phosphorylation enrichment" value=0.793
record_sequence="KEAQVYQAFKL [SUCLG2_Y343]" assayed_target="Jak2 (UniProt O60674)" measured_quantity="phosphorylation enrichment" value=0.801
record_sequence="IVLEKYKLLPE [DHFR_Y157_D153V]" assayed_target="Jak2 (UniProt O60674)" measured_quantity="phosphorylation enrichment" value=0.809
record_sequence="LPVHFYSHVEH [PYGM_Y204_G205S]" assayed_target="Jak2 (UniProt O60674)" measured_quantity="phosphorylation enrichment" value=1.71
record_sequence="NLGQQYNSPQE [UMPS_Y432]" assayed_target="Jak2 (UniProt O60674)" measured_quantity="phosphorylation enrichment" value=0.78
record_sequence="QAQMDYRRLQP [MPL_Y591]" assayed_target="Jak2 (UniProt O60674)" measured_quantity="phosphorylation enrichment" value=0.795
record_sequence="TNITEYCRDLI [RECQL_Y492_K487T]" assayed_target="Jak2 (UniProt O60674)" measured_quantity="phosphorylation enrichment" value=1.25
record_sequence="ARVANYQRDGP [CAT_Y386]" assayed_target="Jak2 (UniProt O60674)" measured_quantity="phosphorylation enrichment" value=0.486
record_sequence="KKARAYGPGIE [FLNA_Y287]" assayed_target="Jak2 (UniProt O60674)" measured_quantity="phosphorylation enrichment" value=0.418

Parameters: items (list). Returns: phosphorylation enrichment for each item.
1. FKPENYRRLDI [VHL_Y175_V170F]
2. TYGQVYKGRHV [TNIK_Y40]

Key:
1: 0.747; 2: 0.482

* * *

# assayed.target: Fes (UniProt P07332)
# Sequence (P07332 whole entry, looked up): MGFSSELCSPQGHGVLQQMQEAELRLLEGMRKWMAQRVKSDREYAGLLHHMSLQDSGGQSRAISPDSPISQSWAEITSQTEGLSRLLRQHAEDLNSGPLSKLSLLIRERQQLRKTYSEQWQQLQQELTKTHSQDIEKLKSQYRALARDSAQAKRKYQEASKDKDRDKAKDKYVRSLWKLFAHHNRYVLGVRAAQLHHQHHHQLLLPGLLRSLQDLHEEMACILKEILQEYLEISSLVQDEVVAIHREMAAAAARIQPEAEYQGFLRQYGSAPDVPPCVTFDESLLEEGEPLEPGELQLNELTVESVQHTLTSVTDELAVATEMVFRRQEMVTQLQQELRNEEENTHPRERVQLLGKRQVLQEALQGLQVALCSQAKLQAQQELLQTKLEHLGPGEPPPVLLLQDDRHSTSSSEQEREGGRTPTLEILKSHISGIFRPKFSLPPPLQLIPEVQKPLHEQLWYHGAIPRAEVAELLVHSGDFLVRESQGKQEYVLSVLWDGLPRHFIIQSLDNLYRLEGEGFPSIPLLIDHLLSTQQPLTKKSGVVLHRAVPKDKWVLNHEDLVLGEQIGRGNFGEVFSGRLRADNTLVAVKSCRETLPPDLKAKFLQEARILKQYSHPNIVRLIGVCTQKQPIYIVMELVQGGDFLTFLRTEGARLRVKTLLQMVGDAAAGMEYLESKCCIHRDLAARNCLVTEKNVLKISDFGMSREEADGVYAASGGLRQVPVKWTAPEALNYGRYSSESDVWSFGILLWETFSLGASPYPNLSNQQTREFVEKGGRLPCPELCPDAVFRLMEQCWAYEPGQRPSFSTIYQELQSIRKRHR
# assay.summary: phosphorylation enrichment, bacterial display (enrichment ratio); higher = better substrate or ligand; peptides without Tyr show the background
Field: phosphorylation enrichment. Provide a value for each of the sequences that follow.
Give bare numbers.

record_sequence="SYCYRYRCAAQ [SUMF1_Y344_R349Q]" assayed_target="Fes (UniProt P07332)" measured_quantity="phosphorylation enrichment" value=0.599
record_sequence="TNITEYCRDLI [RECQL_Y492_K487T]" assayed_target="Fes (UniProt P07332)" measured_quantity="phosphorylation enrichment" value=1.35
record_sequence="GADDSYYTARS [ZAP70_Y492]" assayed_target="Fes (UniProt P07332)" measured_quantity="phosphorylation enrichment" value=1.05
record_sequence="VFSSDYFSFVL [USP24_Y2138_YF]" assayed_target="Fes (UniProt P07332)" measured_quantity="phosphorylation enrichment" value=1.34
record_sequence="DAHFTYSRYPW [LY75_Y888_D884A]" assayed_target="Fes (UniProt P07332)" measured_quantity="phosphorylation enrichment" value=0.885

Parameters: items (list). Returns: phosphorylation enrichment for each item.
1. LYEDRYLLGTS [ASS1_Y87]
2. LIFVSYDDWDY [GRIN2A_Y281_S278F]
3. FDGKDYIALNE [HLA-A_Y147_YF]

Key:
0.981
2.75
1.06

* * *

# assayed.target: c-Src SH2;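 also: peptide library displayed on the E. coli surface as eCPX fusions, selected cells deep-sequenced, score is each peptide's frequency after selection divided by its frequency in the input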
# assay.summary: SH2 binding enrichment of the phosphorylated peptide, bacterial display (enrichment ratio); higher = better substrate or ligand; peptides without Tyr show the background
Field: SH2 binding enrichment. Provide a value for each of the sequences that follow.
Answers are plain numbers.

Answered examples (2):
record_sequence="VQEDIYDEFVV [ALDH2_Y332_E337V]" value=0.495
record_sequence="FFVVRYCWLRR [MPZ_Y181_YF]" value=0.499

Turning now to a further sequence:
Exercise: Which SH2 binding enrichment is reported for this sequence? TLQRMYGCDVG [HLA-B_Y123_S121R]
Key: 0.493

* * *

# assayed.target: MERTK (UniProt Q12866)
# Sequence (Q12866 whole entry, looked up): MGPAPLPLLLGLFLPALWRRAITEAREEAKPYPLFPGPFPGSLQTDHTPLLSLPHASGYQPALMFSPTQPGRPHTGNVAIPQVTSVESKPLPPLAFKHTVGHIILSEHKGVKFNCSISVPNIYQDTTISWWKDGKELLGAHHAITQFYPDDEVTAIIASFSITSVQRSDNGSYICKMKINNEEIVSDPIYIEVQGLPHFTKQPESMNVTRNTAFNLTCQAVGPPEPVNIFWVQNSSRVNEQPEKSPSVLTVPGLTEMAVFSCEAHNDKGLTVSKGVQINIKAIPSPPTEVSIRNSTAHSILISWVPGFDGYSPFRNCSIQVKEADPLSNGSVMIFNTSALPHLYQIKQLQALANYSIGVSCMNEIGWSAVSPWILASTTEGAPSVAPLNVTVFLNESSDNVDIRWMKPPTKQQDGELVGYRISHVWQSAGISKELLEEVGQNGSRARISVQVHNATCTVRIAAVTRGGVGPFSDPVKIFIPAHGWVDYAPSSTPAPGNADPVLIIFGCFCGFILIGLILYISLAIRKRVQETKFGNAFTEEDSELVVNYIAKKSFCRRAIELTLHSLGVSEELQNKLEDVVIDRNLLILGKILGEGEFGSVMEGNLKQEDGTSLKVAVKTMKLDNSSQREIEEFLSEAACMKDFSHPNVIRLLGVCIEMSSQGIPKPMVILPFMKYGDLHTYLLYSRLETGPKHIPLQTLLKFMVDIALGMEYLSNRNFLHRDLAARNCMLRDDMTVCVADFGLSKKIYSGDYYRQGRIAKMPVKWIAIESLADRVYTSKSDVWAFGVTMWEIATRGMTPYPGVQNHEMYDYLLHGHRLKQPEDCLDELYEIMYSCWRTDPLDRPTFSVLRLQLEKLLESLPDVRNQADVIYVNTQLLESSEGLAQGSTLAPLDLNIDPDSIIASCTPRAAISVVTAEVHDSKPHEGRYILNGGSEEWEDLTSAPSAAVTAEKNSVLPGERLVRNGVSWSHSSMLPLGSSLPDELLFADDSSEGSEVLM
# assay.summary: phosphorylation enrichment, bacterial display (enrichment ratio); higher = better substrate or ligand; peptides without Tyr show the background
Field: phosphorylation enrichment. Provide a value for each of the sequences that follow.
Give bare numbers.

Parameters: items (list). Returns: phosphorylation enrichment for each item.
1. AMCVCYDGVEV [ADAMTSL2_Y594_R593C]
2. AGIENYKSRFG [NKD2_Y256_T257K]
3. TVEDHDFEGGI [TKT_Y563_Y563D_YF]
4. FSEVRYVKEPF [HIPK4_Y170_YF]
5. EDKSIYRRGAC [PRKCI_Y125_R130C]
6. SSTASYFEAPG [RFX2_Y108]
7. SDPIIYTLENI [ADGRE1_Y534]
8. WANPEYTGGFK

Key:
1. 0.41
2. 0.412
3. 0.452
4. 0.414
5. 0.406
6. 0.449
7. 1.43
8. 0.364

Parameters: items (list). Returns: phosphorylation enrichment for each item.
1. LEEFQYIGELQ [MSH2_Y856_S860L]
2. VKYLGYPPPEI [KDR_Y357_A352V]
3. GARGRYVMGGP [TNK1_Y277]

Key:
[0.716, 0.427, 0.546]

Parameters: items (list). Returns: phosphorylation enrichment for each item.
1. ACQGKYTPSGQ [ALDOA_Y343]
2. PKGIRYGQGAG [CSRP3_Y73_G72R]
3. TPRNTYKMTSV [MKI67_Y849_L854V]
4. FDGKDYIALNE [HLA-A_Y147_YF]
5. DHLASYLDKVR [KRT10_Y160_R156H]

Key:
1. 0.378
2. 0.9
3. 0.445
4. 0.382
5. 0.453

Parameters: items (list). Returns: phosphorylation enrichment for each item.
1. AVLQLYIFVAT [CFTR_Y1014_P1013L]
2. EASGIYVKSII [PATJ_Y396]
3. GDPTEYYITAI [IGSF22_Y501_S503I]

Key:
1. 0.498
2. 0.438
3. 0.399

Parameters: items (list). Returns: phosphorylation enrichment for each item.
1. QLQVFYATLDQ [MIPEP_Y579]
2. GDPTEYFSTAI [IGSF22_Y501_YF]
3. RFQKLYLDRNL [IGFALS_Y248_L244F]
4. EVESPYEVHDY [GIGYF2_Y1168]
5. PFSSPYENSLI [EPOR_Y489_N487S_YF]
6. FRVDCYKNFVA [FHL1_Y213_C209R_YF]

Key:
[7.63, 0.439, 0.342, 0.567, 0.891, 0.496]

Parameters: items (list). Returns: phosphorylation enrichment for each item.
1. GRRNTCYASIA [ACADM_Y352_Y352C]
2. MKALGYFAVVK [OPA1_Y498_T503K]

Key:
0.407
0.439
